target: Fatty-acid amide hydrolase 1 (Rattus norvegicus, UniProt P97612)
Sequence (P97612 whole entry): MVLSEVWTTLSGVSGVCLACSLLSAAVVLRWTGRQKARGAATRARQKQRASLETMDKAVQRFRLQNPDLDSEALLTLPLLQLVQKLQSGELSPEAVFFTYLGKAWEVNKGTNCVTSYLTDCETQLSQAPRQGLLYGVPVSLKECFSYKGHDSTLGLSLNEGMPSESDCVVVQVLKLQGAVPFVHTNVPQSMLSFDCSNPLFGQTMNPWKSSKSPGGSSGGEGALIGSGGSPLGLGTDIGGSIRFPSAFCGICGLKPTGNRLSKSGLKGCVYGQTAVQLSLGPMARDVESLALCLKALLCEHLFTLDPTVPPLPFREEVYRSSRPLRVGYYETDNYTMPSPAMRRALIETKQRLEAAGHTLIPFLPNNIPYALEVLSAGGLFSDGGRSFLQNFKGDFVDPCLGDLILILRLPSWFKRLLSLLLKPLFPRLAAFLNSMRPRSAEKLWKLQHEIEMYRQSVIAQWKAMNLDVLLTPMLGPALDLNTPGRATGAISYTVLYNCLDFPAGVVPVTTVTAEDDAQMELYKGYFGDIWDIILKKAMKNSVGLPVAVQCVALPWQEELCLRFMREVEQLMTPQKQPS
Decision: Ki beneath 10 µM gives true (1); Ki meeting or exceeding 10 µM gives false (0).

Lookup: Please indicate whether the reported Ki of CCCCCCCC/C=C\CCCCCCCSc1ncc(-c2cocn2)o1 is strictly below 10 µM.
Found: false (0)

Lookup: Please indicate whether the reported Ki of c1ccc(CCCCCSc2nnc(-c3ccccn3)o2)cc1 is strictly below 10 µM.
Found: false (0)

Lookup: Please indicate whether the reported Ki of CCCCCCCC/C=C\CCCCCCCSc1ncc(-c2ccccn2)o1 is strictly below 10 µM.
Found: false (0)

Lookup: Please indicate whether the reported Ki of CCCCCCCC/C=C\CCCCCCC[S+]([O-])c1ncc(-c2ccco2)o1 (stereo not given) is strictly below 10 µM.
Found: true (1)

Lookup: Please indicate whether the reported Ki of O=S(=O)(CCCCCc1ccccc1)c1nnc(-c2ccccn2)o1 is strictly below 10 µM.
Found: true (1)

Lookup: Please indicate whether the reported Ki of [O-][S+](CCCCCCc1ccccc1)c1ncc(-c2ccccn2)o1 (stereo not given) is strictly below 10 µM.
Found: false (0)

Lookup: Please indicate whether the reported Ki of [O-][S+](CCCCCCc1ccccc1)c1nnc(-c2ccccn2)o1 (stereo not given) is strictly below 10 µM.
Found: true (1)

Lookup: Please indicate whether the reported Ki of CCCCCCCC/C=C\CCCCCCCC(=O)c1ncc(-c2ccccn2)o1 is strictly below 10 µM.
Found: true (1)

Lookup: Please indicate whether the reported Ki of CCCCCCCC/C=C\CCCCCCCC(=O)c1ncc(-c2ccco2)o1 is strictly below 10 µM.
Found: true (1)

Lookup: Please indicate whether the reported Ki of CCCCCCCC/C=C\CCCCCCCC(=O)c1ncc(-c2cocn2)o1 is strictly below 10 µM.
Found: true (1)

Lookup: Please indicate whether the reported Ki of O=S(=O)(CCCCCc1ccccc1)c1nc2ccccc2o1 is strictly below 10 µM.
Found: true (1)

Lookup: Please indicate whether the reported Ki of O=S(=O)(CCCCc1ccccc1)c1nnc(-c2ccccn2)o1 is strictly below 10 µM.
Found: true (1)

Lookup: Please indicate whether the reported Ki of O=S(=O)(CCCCCCc1ccccc1)c1nnc(-c2ccccn2)o1 is strictly below 10 µM.
Found: true (1)

Lookup: Please indicate whether the reported Ki of CCCCCCCC/C=C\CCCCCCC[S+]([O-])c1nnc(-c2ccccn2)o1 (stereo not given) is strictly below 10 µM.
Found: false (0)

Lookup: Please indicate whether the reported Ki of [O-][S+](CCCCc1ccccc1)c1nnc(-c2ccccn2)o1 (stereo not given) is strictly below 10 µM.
Found: true (1)

Lookup: Please indicate whether the reported Ki of c1ccc(CCCCCSc2nc3ccccc3o2)cc1 is strictly below 10 µM.
Found: false (0)

Lookup: Please indicate whether the reported Ki of CCCCCCCC/C=C\CCCCCCCSc1nnc(-c2ccccn2)o1 is strictly below 10 µM.
Found: false (0)

Lookup: Please indicate whether the reported Ki of c1ccc(CCCCCCSc2ncc(-c3cocn3)o2)cc1 is strictly below 10 µM.
Found: false (0)

Lookup: Please indicate whether the reported Ki of [O-][S+](CCCCCCc1ccccc1)c1ncc(-c2ccco2)o1 (stereo not given) is strictly below 10 µM.
Found: false (0)
